- Measurement target: TEAD3 (Homo sapiens)
- Sequence (Q99594 whole entry, species assumed): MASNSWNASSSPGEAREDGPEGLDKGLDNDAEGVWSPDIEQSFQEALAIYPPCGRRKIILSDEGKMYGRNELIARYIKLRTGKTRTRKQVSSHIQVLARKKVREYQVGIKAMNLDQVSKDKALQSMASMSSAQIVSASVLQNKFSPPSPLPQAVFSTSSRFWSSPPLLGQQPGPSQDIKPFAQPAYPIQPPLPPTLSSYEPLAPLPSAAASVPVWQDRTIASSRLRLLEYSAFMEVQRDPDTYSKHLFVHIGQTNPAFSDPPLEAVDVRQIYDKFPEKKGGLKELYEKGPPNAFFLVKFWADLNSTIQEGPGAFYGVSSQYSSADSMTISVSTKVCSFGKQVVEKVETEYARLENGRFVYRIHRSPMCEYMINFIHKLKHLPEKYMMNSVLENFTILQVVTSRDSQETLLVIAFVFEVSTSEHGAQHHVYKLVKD
Exam item: assign Yes to entries whose IC50 is below 100 nM and No to entries at or above 100 nM. Note that a value of exactly 100 nM receives No.

Compound	Class assignment
C=CC(=O)NCc1cc(-c2ccc(OC(F)(F)F)cc2)c2ncccc2c1CO [Compound 50]	Yes

Input line: Check if IC50 falls below 100 nM for C=CC(=O)N(C)Cc1cc(-c2ccc(OC(F)(F)F)cc2)c2ncccc2c1[C@H](O)CO (single isomer, unassigned) [Compound 51] .
Output line: No

Input line: // query: C=CC(=O)NCc1nc(-c2ccc(OC(F)(F)F)cc2)c2ccccc2n1 [Compound 7]
Output line: No

Input line: // query: C=CC(=O)N(C)Cc1cc(-c2ccc(OC(F)(F)F)cc2)c2ncccc2c1[C@@H](O)CO (single isomer, unassigned) [Compound 52]
Output line: Yes

Input line: // query: C=CC(=O)NCc1cc(-c2ccc(OC(F)(F)F)cc2)c2ncn(C)c2c1C(F)F [Compound 77]
Output line: No

Input line: // query: C=CC(=O)NCc1cc(-c2ccc(OC(F)(F)F)cc2)c2ncsc2c1-c1noc(=O)[nH]1 [Compound 104]
Output line: Yes
